# recorded.conditions: in ethyl acetate, 298.15 K
readout.kind: solubility (mole fraction)
Please reply with the number alone, leaving off any unit.

Returns the measured solubility (mole fraction) for the input molecule. Input: Oc1ccccc1C=N[C@@H]1CCCC[C@H]1N=Cc1ccccc1O
0.0592

----------
# recorded.conditions: in methanol, 273.15 K
readout.kind: solubility (mole fraction)
Write no unit; give the number alone.

Form field: reported solubility (mole fraction) of Oc1ccccc1C=N[C@@H]1CCCC[C@H]1N=Cc1ccccc1O
0.00051

----------
# recorded.conditions: in n-hexane, 303.15 K
readout.kind: solubility (mole fraction)
Quick one: just the number, no unit, thanks!

Look up solubility (mole fraction) for this compound: Oc1ccccc1C=N[C@@H]1CCCC[C@H]1N=Cc1ccccc1O
0.00287

----------
# recorded.conditions: in acetone, 313.15 K
readout.kind: solubility (mole fraction)
Answer as a number with no unit attached.

What does the data say about its solubility (mole fraction)? Entry: Oc1ccccc1C=N[C@@H]1CCCC[C@H]1N=Cc1ccccc1O
0.0956

----------
# recorded.conditions: in 1,2-dichloroethane, 278.15 K
readout.kind: solubility (mole fraction)
Note: the reply should be a number with no unit written.

Name the reported solubility (mole fraction) value associated with the molecule Oc1ccccc1C=N[C@@H]1CCCC[C@H]1N=Cc1ccccc1O
0.0965

----------
# recorded.conditions: in n-hexane, 313.15 K
readout.kind: solubility (mole fraction)
The answer should be a number; do not append a unit.

Bench note: what solubility (mole fraction) did Oc1ccccc1C=N[C@@H]1CCCC[C@H]1N=Cc1ccccc1O show?
0.00449

----------
# recorded.conditions: in ethanol, 278.15 K
readout.kind: solubility (mole fraction)
// keep it numeric: no unit symbol after the value

Value lookup for solubility (mole fraction); key = Oc1ccccc1C=N[C@@H]1CCCC[C@H]1N=Cc1ccccc1O
0.000988

----------
# recorded.conditions: in acetone, 288.15 K
readout.kind: solubility (mole fraction)
Please give the numeric answer without any surrounding text.

For the compound shown here, Oc1ccccc1C=N[C@@H]1CCCC[C@H]1N=Cc1ccccc1O , give the reported solubility (mole fraction).
0.0462

----------
# recorded.conditions: in acetone, 293.15 K
readout.kind: solubility (mole fraction)
// keep it numeric: no unit symbol after the value

Which solubility (mole fraction) is listed for Oc1ccccc1C=N[C@@H]1CCCC[C@H]1N=Cc1ccccc1O ?
0.053

----------
# recorded.conditions: in n-propanol, 288.15 K
readout.kind: solubility (mole fraction)
Reply with the value as a number alone.

Give the measured solubility (mole fraction) of Oc1ccccc1C=N[C@@H]1CCCC[C@H]1N=Cc1ccccc1O .
0.00196

----------
# recorded.conditions: in acetone, 298.15 K
readout.kind: solubility (mole fraction)
Lab note: jot the number down without any unit.

Recorded solubility (mole fraction) for Oc1ccccc1C=N[C@@H]1CCCC[C@H]1N=Cc1ccccc1O , please?
0.0626

----------
# recorded.conditions: in ethyl acetate, 308.15 K
readout.kind: solubility (mole fraction)
Answer with the value's number alone.

What value of solubility (mole fraction) has been recorded for this entry: Oc1ccccc1C=N[C@@H]1CCCC[C@H]1N=Cc1ccccc1O
0.0852

----------
# recorded.conditions: in THF, 278.15 K
readout.kind: solubility (mole fraction)

Item under review: Oc1ccccc1C=N[C@@H]1CCCC[C@H]1N=Cc1ccccc1O . Reported solubility (mole fraction)?
0.144

----------
# recorded.conditions: in methanol, 313.15 K
readout.kind: solubility (mole fraction)
Answer using only a numeral; do not append any unit.

Quick one: solubility (mole fraction) for Oc1ccccc1C=N[C@@H]1CCCC[C@H]1N=Cc1ccccc1O ?
0.00298

----------
# recorded.conditions: in THF, 283.15 K
readout.kind: solubility (mole fraction)
Just the number, please, no unit attached.

Which solubility (mole fraction) value is on record for Oc1ccccc1C=N[C@@H]1CCCC[C@H]1N=Cc1ccccc1O ?
0.157

----------
# recorded.conditions: in acetone, 303.15 K
readout.kind: solubility (mole fraction)
// return just the number, without any unit appended

Would you mind telling me what solubility (mole fraction) value was observed for Oc1ccccc1C=N[C@@H]1CCCC[C@H]1N=Cc1ccccc1O ?
0.0732

----------
# recorded.conditions: in 1,2-dichloroethane, 313.15 K
readout.kind: solubility (mole fraction)
No unit in the answer, please; the number alone is enough.

Reported solubility (mole fraction), compound Oc1ccccc1C=N[C@@H]1CCCC[C@H]1N=Cc1ccccc1O : ____
0.211

----------
# recorded.conditions: in ethanol, 293.15 K
readout.kind: solubility (mole fraction)
Response field accepts a number only; no unit should be typed.

I have this compound here, Oc1ccccc1C=N[C@@H]1CCCC[C@H]1N=Cc1ccccc1O , and I need its recorded solubility (mole fraction).
0.00189

----------
# recorded.conditions: in dichloromethane, 278.15 K
readout.kind: solubility (mole fraction)
# output: bare number, no unit

# get_value(readout='solubility (mole fraction)', item= Oc1ccccc1C=N[C@@H]1CCCC[C@H]1N=Cc1ccccc1O )
0.13

----------
# recorded.conditions: in n-propanol, 313.15 K
readout.kind: solubility (mole fraction)
I'd appreciate a reply containing only the number, no unit.

Please report the recorded solubility (mole fraction) for Oc1ccccc1C=N[C@@H]1CCCC[C@H]1N=Cc1ccccc1O .
0.00554

----------
# recorded.conditions: in toluene, 288.15 K
readout.kind: solubility (mole fraction)

Recorded solubility (mole fraction) of Oc1ccccc1C=N[C@@H]1CCCC[C@H]1N=Cc1ccccc1O , please.
0.0674

----------
# recorded.conditions: in n-propanol, 283.15 K
readout.kind: solubility (mole fraction)
Format: numeric value only, no unit, no commentary.

Suppose we examine the compound Oc1ccccc1C=N[C@@H]1CCCC[C@H]1N=Cc1ccccc1O ; what solubility (mole fraction) value has been reported?
0.00157

----------
# recorded.conditions: in methyl acetate, 308.15 K
readout.kind: solubility (mole fraction)
Please give only the number in your answer, with no unit.

Recorded solubility (mole fraction) for Oc1ccccc1C=N[C@@H]1CCCC[C@H]1N=Cc1ccccc1O , please?
0.0791

----------
# recorded.conditions: in toluene, 278.15 K
readout.kind: solubility (mole fraction)
Quick one: just the number, no unit, thanks!

Requested field: solubility (mole fraction). Item: Oc1ccccc1C=N[C@@H]1CCCC[C@H]1N=Cc1ccccc1O
0.0487

----------
# recorded.conditions: in n-propanol, 293.15 K
readout.kind: solubility (mole fraction)
Reply with just the number.

Which solubility (mole fraction) value is on record for Oc1ccccc1C=N[C@@H]1CCCC[C@H]1N=Cc1ccccc1O ?
0.00243

----------
# recorded.conditions: in methyl acetate, 278.15 K
readout.kind: solubility (mole fraction)
I only need the number, thanks.

Entry under review: Oc1ccccc1C=N[C@@H]1CCCC[C@H]1N=Cc1ccccc1O . Reported solubility (mole fraction)?
0.0244

----------
# recorded.conditions: in ethanol, 308.15 K
readout.kind: solubility (mole fraction)
Just the number, please, no unit attached.

Param item = Oc1ccccc1C=N[C@@H]1CCCC[C@H]1N=Cc1ccccc1O ; retrieve measured solubility (mole fraction).
0.00358

----------
# recorded.conditions: in acetonitrile, 283.15 K
readout.kind: solubility (mole fraction)
Keep the answer to the number alone.

Using the record for Oc1ccccc1C=N[C@@H]1CCCC[C@H]1N=Cc1ccccc1O , report its solubility (mole fraction).
0.00616

----------
# recorded.conditions: in ethyl acetate, 288.15 K
readout.kind: solubility (mole fraction)
Reply with just the number.

Return reported solubility (mole fraction); argument: Oc1ccccc1C=N[C@@H]1CCCC[C@H]1N=Cc1ccccc1O
0.0415

----------
# recorded.conditions: in acetone, 278.15 K
readout.kind: solubility (mole fraction)
Answer as a number with no unit attached.

Sample Oc1ccccc1C=N[C@@H]1CCCC[C@H]1N=Cc1ccccc1O — what was its solubility (mole fraction)?
0.0351

----------
# recorded.conditions: in methyl acetate, 273.15 K
readout.kind: solubility (mole fraction)
Number only, please.

Fill in: solubility (mole fraction) of Oc1ccccc1C=N[C@@H]1CCCC[C@H]1N=Cc1ccccc1O is ___
0.0199

----------
# recorded.conditions: in methanol, 298.15 K
readout.kind: solubility (mole fraction)
Could you keep your reply to the number by itself?

Quick one: solubility (mole fraction) of Oc1ccccc1C=N[C@@H]1CCCC[C@H]1N=Cc1ccccc1O ?
0.00161

----------
# recorded.conditions: in n-hexane, 283.15 K
readout.kind: solubility (mole fraction)
Write the value as a bare number.

Data request, read-out solubility (mole fraction), for Oc1ccccc1C=N[C@@H]1CCCC[C@H]1N=Cc1ccccc1O
0.000988

----------
# recorded.conditions: in 1,2-dichloroethane, 288.15 K
readout.kind: solubility (mole fraction)
Response field accepts a number only; no unit should be typed.

Which value of solubility (mole fraction) has been reported for Oc1ccccc1C=N[C@@H]1CCCC[C@H]1N=Cc1ccccc1O in the records?
0.12

----------
# recorded.conditions: in methanol, 303.15 K
readout.kind: solubility (mole fraction)
The response must contain the number and no unit.

Which solubility (mole fraction) value belongs to Oc1ccccc1C=N[C@@H]1CCCC[C@H]1N=Cc1ccccc1O ?
0.00198

----------
# recorded.conditions: in ethyl acetate, 293.15 K
readout.kind: solubility (mole fraction)
Give the figure only, with no unit attached.

# query: solubility (mole fraction) of entry Oc1ccccc1C=N[C@@H]1CCCC[C@H]1N=Cc1ccccc1O
0.0489
